Origin of measurements: PubChem BioAssay AID588425

# Test Target: Potassium voltage-gated channel subfamily KQT member 1 (Homo sapiens)
# Test Protocol: KCNQ1 channel current inhibition, SAR follow-up, selectivity assay for KCNQ2 inhibitor project, automated patch clamp, KCNQ1-CHO cells (AID 588425)
pIC50: −log10 of the molar value.
Measurement Name: pIC50

As a guide, the following entries are already answered.
Compound: CCC(C(=O)Nc1ccccc1N1CCCC1)c1cccc(Cl)c1 (centres undefined)
pIC50: 4.95
//
Compound: O=C(Nc1ccccc1N1CCCC1)C1CCc2ccccc21 (centres undefined)
pIC50: 4.92
//
Compound: CC[C@H](C(=O)Nc1ccccc1N1CCCC1)c1ccccc1
pIC50: 5.53
//
Compound: CC[C@@H](C(=O)Nc1ccc(N2CCCC2)cc1)c1ccccc1
pIC50: 4.83
//
Compound: CCC(C(=O)Nc1ccccc1N1CCCC1)c1cccc(OC)c1 (centres undefined)
pIC50: 4.66

P. CCC(C(=O)Nc1ccccc1N1CCCC1)c1ccc(Cl)c(Cl)c1 (centres undefined)
Q. CCC(C(=O)Nc1ccccc1N1CCCC1)c1ccccc1 (centres undefined)
For this pair, P and Q , which shows a numerically higher pIC50? Returns: label corresponding to the selected item. P
(P: 5.00, Q: 4.71)

A. CCC(C(=O)Nc1ccccc1N1CCCC1)c1cccc(F)c1 (centres undefined)
B. CCC(C(=O)Nc1ccccc1N1CCCC1)c1ccc(F)cc1 (centres undefined)
Could you tell me which of A and B has the lower pIC50 reading? Returns: label corresponding to the selected item. A

---

# Test Target: Potassium voltage-gated channel subfamily KQT member 1 (Homo sapiens) (UniProt P51787)
# Sequence (P51787 whole entry, looked up): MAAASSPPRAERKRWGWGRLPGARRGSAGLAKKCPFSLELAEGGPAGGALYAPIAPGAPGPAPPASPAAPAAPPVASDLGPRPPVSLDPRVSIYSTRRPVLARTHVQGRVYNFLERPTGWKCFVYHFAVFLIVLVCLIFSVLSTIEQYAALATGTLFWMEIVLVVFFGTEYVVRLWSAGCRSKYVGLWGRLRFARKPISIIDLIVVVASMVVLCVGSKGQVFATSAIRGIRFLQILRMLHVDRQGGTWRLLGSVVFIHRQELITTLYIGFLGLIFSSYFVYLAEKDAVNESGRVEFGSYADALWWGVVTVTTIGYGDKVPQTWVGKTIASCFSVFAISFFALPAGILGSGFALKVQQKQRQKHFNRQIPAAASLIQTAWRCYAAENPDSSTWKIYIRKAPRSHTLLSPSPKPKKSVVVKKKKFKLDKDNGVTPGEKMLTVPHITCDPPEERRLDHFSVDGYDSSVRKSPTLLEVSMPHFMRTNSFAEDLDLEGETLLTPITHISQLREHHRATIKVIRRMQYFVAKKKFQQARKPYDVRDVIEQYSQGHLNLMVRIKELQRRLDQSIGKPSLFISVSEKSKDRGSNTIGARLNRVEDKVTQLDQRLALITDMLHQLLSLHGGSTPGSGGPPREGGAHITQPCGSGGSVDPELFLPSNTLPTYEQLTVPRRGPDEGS
# Test Protocol: KCNQ1 channel current inhibition, SAR follow-up, selectivity assay for KCNQ2 inhibitor project, automated patch clamp, KCNQ1-CHO cells (AID 588425)
Measurement Name: IC50

Compound: CCC(C(=O)Nc1ccc(N2CCCC2)cc1)c1ccccc1 (stereo not given)
Result: 29 µM

Moving on to another compound below.
Any idea what its IC50 is? The compound is CCC(C(=O)Nc1ccccc1N1CCCC1)c1ccc(F)c(F)c1 (stereo not given) 2.58 µM

---

# Test Target: Potassium voltage-gated channel subfamily KQT member 1 (Homo sapiens) (UniProt P51787)
# Test Protocol: KCNQ1 channel current inhibition, SAR follow-up, selectivity assay for KCNQ2 inhibitor project, automated patch clamp, KCNQ1-CHO cells (AID 588425)
pIC50: −log10 of the molar value.
Measurement Name: pIC50

Compound: CCC(C(=O)Nc1ccccc1-n1cccc1)c1ccccc1 (stereo not drawn)
pIC50: 4.86

A. CC[C@@H](C(=O)Nc1ccccc1N1CCCC1)c1ccccc1
B. CC(C(=O)Nc1ccccc1N1CCCC1)c1ccccc1 (stereo not drawn)
For this pair, A and B , which shows a numerically higher pIC50? Returns: label corresponding to the selected item. A
(A: 5.06, B: 4.54)
